Data origin: BigSolDB 2.1

- measurement context: in ethanol, 308.15 K
quantity kind: solubility (mole fraction)

>>> print(df.to_string())
                         structure_notation               quantity_kind  endpoint_result
0  O=C1OC(=O)[C@H]2[C@@H]1[C@@H]1C=C[C@H]2O1  solubility (mole fraction)          0.00169

###

- measurement context: in ethyl acetate, 283.15 K
quantity kind: solubility (mole fraction)

                         structure_notation  endpoint_result
0  O=C1OC(=O)[C@H]2[C@@H]1[C@@H]1C=C[C@H]2O1           0.0165

###

- measurement context: in ethanol, 293.15 K
quantity kind: solubility (mole fraction)

In [3]: df
Out[3]:
                         structure_notation               quantity_kind  endpoint_result
0  O=C1OC(=O)[C@H]2[C@@H]1[C@@H]1C=C[C@H]2O1  solubility (mole fraction)          0.00102
